Consider the following compounds; for each one, report its selectivity ratio.
Test: Therapeutic index, ratio of IC50 for human MT2 cells to EC50 for HIV1 3B
Format: cell-based
Settings: read-out: Ratio IC50/EC50

Field: selectivity ratio. Fill in for each record below.
1. COc1ccc(OCCC#Cc2cn(C3C=CC(CO)O3)c(=O)[nH]c2=O)c(CCNC(=S)Nc2ccc(Br)cn2)c1 (centres undefined)
2. Cc1cn([C@H]2C=C[C@@H](CO)O2)c(=O)[nH]c1=O [STAVUDINE]

68
> 50

Provide selectivity ratio for all items below, preserving their order.
1. C#CCCOc1ccc(OC)cc1CCNC(=S)Nc1ccc(Br)cn1
2. COc1ccc(OC)c(CCNC(=S)Nc2ccc(Br)cn2)c1

1: > 44; 2: > 24
